Each recorded value in this set is attributed to the supplement of paper PMC11451515.

Exercise: state measured cell viability for each of the compounds provided.
System: P12-Ichikawa
Assay: cell viability relative to DMSO control; higher = less cytotoxic
Settings: RPMI 5 mM glucose + 10% FBS; 48 h; 5.12 µM
State the answer as a number, implicitly in %.

Query: Using the record for `CC1=CC=CC=C1CN2C(=O)C/3=C(/CCN(CC4=CC=CC=C4)C3)N\5CC\N=C25` , report its cell viability.
Result: 79.8

Query: Using the record for `CCC[C@H](N[C@@H](C)C(=O)N1[C@H](C(=O)O)C[C@@H]2CCCC[C@@H]21)C(=O)OCC` , report its cell viability.
Result: 77.1

Query: Using the record for `Clc1cc(Cl)cc(CNc2ncncc2-c2ccc3c(c2)OCO3)c1` , report its cell viability.
Result: 89.9

Query: Using the record for CC(=O)CC(C1=CC=CC=C1)C/2=C(O)/C3=CC=CC=C3OC2=O (centres undefined) , report its cell viability.
Result: 128

Query: Using the record for `C[C@@]12O[C@@H](C[C@]1(O)CO)n1c3ccccc3c3c4c(c5c6ccccc6n2c5c31)CNC4=O` , report its cell viability.
Result: 26.6

Query: Using the record for COc1cc(O)c2c(c1)C1OC1C[C@H](O)[C@H](O)C(=O)/C=C\C[C@H](C)OC2=O (some centres undefined) , report its cell viability.
Result: 117

Query: Using the record for `CC(C)(C)c1cc(C=C(C#N)C#N)cc(Br)c1O` , report its cell viability.
Result: 123

Query: Using the record for `O=C1Nc2ccc(Cl)cc2[C@@](C#CC2CC2)(C(F)(F)F)O1` , report its cell viability.
Result: 84.5

Query: Using the record for `Cc1cccc(-c2nn(C(=S)Nc3ccccc3)cc2-c2ccnc3ccccc23)n1` , report its cell viability.
Result: 108

Query: Using the record for `NC1=NC=C(C=C1)C2=CC=C3N=CC\4=C(N(C(=O)\C=C4)C5=CC(=CC=C5)C(F)(F)F)C3=C2` , report its cell viability.
Result: 7.23

Query: Using the record for CCOc1cc(N)c(Cl)cc1C(=O)NCC1CN(Cc2ccc(F)cc2)CCO1 (centres undefined) , report its cell viability.
Result: 115

Query: Using the record for `OC(=O)\C1=C\N(C2=CC=C(F)C=C2)C3=C(C=C(F)C(=C3)N4CCNCC4)C1=O` , report its cell viability.
Result: 117

Query: Using the record for `CC(=O)OCC(=O)[C@@]12\N=C(C)/O[C@@H]1C[C@H]3[C@@H]4CCC/5=C/C(=O)/C=C\[C@]5(C)[C@H]4[C@@H](O)C[C@]23C` , report its cell viability.
Result: 85.5

Query: Using the record for `Oc1ccc(/C=C/c2cc(O)cc(O)c2)cc1` , report its cell viability.
Result: 111

Query: Using the record for `CCN(CC)CCCCNc1nc2cc(Cl)c(Cl)cc2nc1-c1ccc(-c2cccs2)s1` , report its cell viability.
Result: 123

Query: Using the record for `CC\1=C(C(=O)N(\C=C1)C2=CC=C(C=C2)C3=NC=CO3)/C4=CC5=CN=C(N)N=C5C=C4` , report its cell viability.
Result: 106

Query: Using the record for `Oc1ccc(C2CCN(c3ccnc4ccccc34)CC2)cc1O` , report its cell viability.
Result: 71.5

Query: Using the record for `COC[C@@H](NC(C)=O)C(=O)NCc1ccccc1` , report its cell viability.
Result: 106

Query: Using the record for `NC(=O)c1ncn([C@@H]2O[C@H](CO)[C@@H](O)[C@H]2O)n1` , report its cell viability.
Result: 88.3
